Reported IC50 values for a set of molecules
# Assayed system: Human mTOR (FLAG-TOR) (Homo sapiens, UniProt P42345)
# Construct: FLAG
# Assay explanation: Human mTOR kinase assay with purified enzyme, DELFIA format
# Type: biochemical
Output should be the measured figure followed by the unit it is expressed in.

> print(dat)
                                   molecule  property.label  reported.result
1  CCNC(=O)Nc1ccc(-c2nc(N3CC4CCC(C3)O4)c3cnn(C4CCN(C(=O)OCC)CC4)c3n2)cc1            IC50          0.36 nM

// IC50 value for "CN(C)CCn1ncc2c(N3CC4CCC(C3)O4)nc(-c3ccc(NC(=O)NC4CC4)cc3)nc21" : 8.4 nM

---

Reported IC50 values for a set of molecules
# Assayed system: PI3K (Homo sapiens)
# Construct: PI3 Kinase α IC50; other: PI3 Kinase α; other: PI3 Kinase α isoform, fluorescence polarization
# Sequence (P42336 whole entry, canonical isoform): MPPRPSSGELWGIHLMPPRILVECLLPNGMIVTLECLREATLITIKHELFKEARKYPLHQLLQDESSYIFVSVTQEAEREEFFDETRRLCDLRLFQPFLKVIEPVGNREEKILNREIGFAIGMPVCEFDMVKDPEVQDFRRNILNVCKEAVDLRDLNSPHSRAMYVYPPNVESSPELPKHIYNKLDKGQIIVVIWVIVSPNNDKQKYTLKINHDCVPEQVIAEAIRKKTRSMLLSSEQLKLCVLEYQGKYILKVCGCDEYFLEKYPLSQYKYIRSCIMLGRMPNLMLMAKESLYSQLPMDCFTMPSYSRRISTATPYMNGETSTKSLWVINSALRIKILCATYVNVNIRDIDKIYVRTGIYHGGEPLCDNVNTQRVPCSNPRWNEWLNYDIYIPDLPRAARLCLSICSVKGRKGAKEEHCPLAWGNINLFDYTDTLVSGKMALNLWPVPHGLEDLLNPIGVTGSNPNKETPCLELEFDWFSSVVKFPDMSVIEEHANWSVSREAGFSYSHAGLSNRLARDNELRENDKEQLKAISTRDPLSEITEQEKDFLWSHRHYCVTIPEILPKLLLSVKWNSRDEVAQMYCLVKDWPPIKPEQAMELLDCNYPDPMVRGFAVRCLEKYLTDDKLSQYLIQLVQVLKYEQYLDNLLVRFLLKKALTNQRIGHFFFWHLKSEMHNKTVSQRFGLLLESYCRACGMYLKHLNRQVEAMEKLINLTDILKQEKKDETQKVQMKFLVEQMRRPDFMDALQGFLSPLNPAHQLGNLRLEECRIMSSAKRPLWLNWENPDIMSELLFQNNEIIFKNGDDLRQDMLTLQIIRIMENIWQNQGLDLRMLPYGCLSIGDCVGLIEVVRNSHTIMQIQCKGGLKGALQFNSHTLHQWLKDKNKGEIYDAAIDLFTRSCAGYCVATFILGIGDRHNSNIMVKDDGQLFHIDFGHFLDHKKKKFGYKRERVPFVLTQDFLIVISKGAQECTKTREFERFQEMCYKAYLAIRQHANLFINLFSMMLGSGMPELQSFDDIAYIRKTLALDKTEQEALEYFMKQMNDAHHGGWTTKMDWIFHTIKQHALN
# Assay explanation: Fluorescence polarization assay for PI3K
# Assay type: biochemical
# Stated conditions: PI3 Kinase α isoform, fluorescence polarization; read-out: PI3 Kinase α IC50

Below are worked cases with known answers.
> print(dat)
                                   molecule  property.label  reported.result
1  COC1CCC(n2ncc3c(N4CC5CCC(C4)O5)nc(-c4ccc(NC(=O)Nc5ccc(OCCN(C)C)cc5)cc4)nc32)CC1 (centres unmarked)            IC50           221 nM
2  O=C(Nc1ccccc1)Nc1ccc(-c2nc(N3CC4CCC(C3)O4)c3sccc3n2)cc1            IC50            82 nM
3  CN1CCN(Cc2cc3nc(-c4ccc(NC(=O)NC5CC5)cc4)nc(N4CC5CCC(C4)O5)c3s2)CC1            IC50           874 nM
4  COCC(COC)n1ncc2c(N3CC4CCC(C3)O4)nc(-c3ccc(NC(=O)OC)cc3)nc21            IC50          5770 nM
5  O=C(Nc1ccncc1)Nc1ccc(-c2nc(N3CC4CNCC(C3)O4)c3cnn(CC(F)(F)F)c3n2)cc1            IC50          1790 nM
6  CC(=O)Nc1ccc(-c2nc(N3CC4CCC(C3)O4)c3sccc3n2)cc1            IC50          4370 nM
7  Oc1cccc(-c2nc(N3CC4CCC(C3)O4)c3sccc3n2)c1            IC50           399 nM

// IC50 value for CNC(=O)Nc1ccc(-c2nc(N3CC4CCC(C3)O4)c3cnn(C4CCC(N5CCN(C)CC5)CC4)c3n2)cc1 (centres unmarked) : 357 nM

---

Reported log10(IC50) values for a set of compounds
# Assayed system: Human mTOR (FLAG-TOR) (Homo sapiens)
# Construct: FLAG
# Assay explanation: Human mTOR kinase assay with purified enzyme, DELFIA format
# Assay type: biochemical
Heads up: the numbers are on a log10 scale; they represent IC50 in nM.

Readout log10(IC50) for "CNC(=O)Nc1ccc(-c2nc(N3CC4CCC(C3)O4)c3cnn(CCC#N)c3n2)cc1" , test system Human mTOR (FLAG-TOR) (Homo sapiens), was 0.18

Readout log10(IC50) for "CN(C)CCOc1ccc(NC(=O)Nc2ccc(-c3nc(N4CC5CCC(C4)O5)c4cnn(CCC#N)c4n3)cc2)cc1" , test system Human mTOR (FLAG-TOR) (Homo sapiens), was -0.13

Readout log10(IC50) for "COC(=O)N1CCC(n2ncc3c(N4CC5CCC(C4)O5)nc(-c4ccc(NC(=O)Nc5ccccc5CO)cc4)nc32)CC1" , test system Human mTOR (FLAG-TOR) (Homo sapiens), was 0.48

Readout log10(IC50) for "CCn1ncc2c(N3CC4CCC(C3)O4)nc(-c3ccc(NC(=O)Nc4ccc(N(C)C)nc4)cc3)nc21" , test system Human mTOR (FLAG-TOR) (Homo sapiens), was 0.18

Readout log10(IC50) for "Nc1ccc(-c2nc(N3CC4CCC(C3)O4)c3cnn(C4CCC5(CC4)OCCO5)c3n2)cc1" , test system Human mTOR (FLAG-TOR) (Homo sapiens), was 1.73

Readout log10(IC50) for "COC(=O)Nc1ccc(-c2nc(N3CC4CCC(C3)O4)c3cnn(CC(F)(F)F)c3n2)cc1" , test system Human mTOR (FLAG-TOR) (Homo sapiens), was 0.90

Readout log10(IC50) for "O=C(Nc1ccc(-c2nc(N3CC4CCC(C3)O4)c3cnn(C4CCN(Cc5cccnc5)CC4)c3n2)cc1)OCCO" , test system Human mTOR (FLAG-TOR) (Homo sapiens), was -0.03
